Biological target: UniProtKB P03951
Sequence (P03951 388-625): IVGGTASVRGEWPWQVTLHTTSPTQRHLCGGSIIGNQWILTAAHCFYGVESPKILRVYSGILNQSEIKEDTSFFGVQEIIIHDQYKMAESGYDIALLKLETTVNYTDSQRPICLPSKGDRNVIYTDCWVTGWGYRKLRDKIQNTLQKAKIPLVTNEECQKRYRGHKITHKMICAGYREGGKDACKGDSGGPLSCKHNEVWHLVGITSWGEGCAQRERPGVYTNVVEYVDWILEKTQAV
Sequence (P03951 19-387 partner): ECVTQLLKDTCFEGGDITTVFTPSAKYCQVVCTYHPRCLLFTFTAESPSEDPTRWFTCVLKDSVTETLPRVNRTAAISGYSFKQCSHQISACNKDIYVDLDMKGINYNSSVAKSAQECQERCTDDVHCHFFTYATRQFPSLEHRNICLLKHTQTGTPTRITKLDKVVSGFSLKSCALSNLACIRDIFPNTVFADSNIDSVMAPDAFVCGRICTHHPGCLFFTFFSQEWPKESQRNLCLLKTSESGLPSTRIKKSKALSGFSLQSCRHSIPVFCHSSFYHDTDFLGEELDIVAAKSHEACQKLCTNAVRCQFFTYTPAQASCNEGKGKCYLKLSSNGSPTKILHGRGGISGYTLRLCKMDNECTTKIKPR
pKi: −log10 of the molar value.
Property Label: pKi

A. C[C@H]1CCC[C@H](c2ccc(-c3cc(Cl)ccc3-n3cc(Cl)nn3)c[n+]2[O-])c2cccc(c2)-c2c(cnn2C(F)F)NC1=O (single isomer, unassigned)
B. COC(=O)Nc1ccc2c(c1)NC(=O)CCCCC(c1ccc(-c3c(F)ccc(Cl)c3F)cn1)c1cc-2ncc1F (stereo not shown)
C. COC(=O)Nc1ccc2c(c1)NC(=O)CCCCC(c1ccc(-c3c(F)ccc(Cl)c3F)c[n+]1[O-])c1nc-2c(C)[nH]1 (single isomer, unassigned)
D. O=C(C1CCCCC(c2ccc(-c3cc(Cl)ccc3-n3cnnn3)c[n+]2[O-])c2cccc(c2)-c2cc(F)ccc2N1)N1CCCC1 (single isomer, unassigned)
E. CCc1[nH]c2nc1-c1ccc(NC(=O)OC)cc1NC(=O)CCCC[C@@H]2c1ccc(-c2cc(F)ccc2OC(F)(F)F)c[n+]1[O-] (single isomer, unassigned)
Input: Please rank everything listed above by pKi, with the minimum value first. List each label, following the requested order.
Output: B, D, A, E, C
(B: 6.78, D: 7.32, A: 8.03, E: 9.34, C: 9.72)

A. COC(=O)Nc1ccc2c(c1)NC(=O)C[C@H]1C[C@@H]1C[C@H](c1ccc(-c3c(F)cccc3F)c[n+]1[O-])c1nc-2c(C)[nH]1 (single isomer, unassigned)
B. COC(=O)Nc1ccc2c(c1)NC(=O)CCCC[C@H](c1ccc(-c3ccccc3-n3cc(C)cn3)c[n+]1[O-])c1nc-2c(C)[nH]1 (single isomer, unassigned)
C. COC(=O)Nc1ccc2c(c1)NC(=O)CCCCC(c1ccc(-c3cc(Cl)ccc3-n3cnnn3)cn1)c1cc(F)cc-2c1 (stereo not shown)
D. COC(=O)Nc1ccc2c(c1)NC(=O)CCCC[C@H](c1ccc(-c3cc(Cl)ccc3-n3cc(Cl)nn3)c[n+]1[O-])c1cccc-2c1 (single isomer, unassigned)
E. COC(=O)Nc1ccc2c(c1)NC(=O)CCCC[C@H](c1ccc(-c3c(F)ccc(Cl)c3F)c[n+]1[O-])c1cc(F)cc-2c1 (single isomer, unassigned)
Input: I would appreciate it if you could sort these 5 compounds by pKi, starting from the smallest number. // list labels; follow requested order
Output: B, A, C, E, D
(B: 7.40, A: 7.94, C: 8.56, E: 9.26, D: 9.89)
